# Test system: Carbonic anhydrase 9 (Homo sapiens)
pKi: −log10 of the molar value.
Entry flag: MET if pKi reaches 8; NOT MET if it does not.

Take a look at these entries with their results.
[[record]]
smiles_data = "NS(=O)(=O)c1ccc(NC(=O)/C=C/c2ccc(F)c(F)c2)cc1"
group_label = "NOT MET"

[[record]]
smiles_data = "NS(=O)(=O)c1ccc(NC(=O)/C=C/c2ccc(OC(F)(F)F)cc2)cc1"
group_label = "MET"

[[record]]
smiles_data = "NS(=O)(=O)c1ccc(NC(=O)/C=C/c2ccc(C(F)(F)F)cc2)cc1"
group_label = "MET"


Read the next record carefully.
query: Could you please find out whether COc1ccc(/C=C/C(=O)Nc2ccc(S(N)(=O)=O)cc2)cc1 has pKi that meets 8 or exceeds it?
result: MET
